- ASSAY INFO: chemical genetic growth profiling, strain panel (AID 1159580);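 note: tested at 20 µM; growth read once vehicle control cultures reached saturation at 30 °C; lower values mean less growth of the strain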
- TEST SETTINGS: S. cerevisiae deletion strains, growth OD, locus YER015W, strain faa2
Among all 5,500 compounds or so, about 2,000 (36%) were called active. About 18% were inconclusive and are not listed. Cut-off read from the data, not from the text of the source: active = normalized growth mostly below about 0.91 (no sharp cut-off); inconclusive = no clear call, values can overlap the other calls; inactive = mostly above about 0.92. The list shows a part of the results.
Return exactly one item of T = active, F = inactive

Solved entries (count: 5):
1. N[C@@H]1[C@@H](O)[C@H](O)[C@@H](CO)O[C@H]1O; F
2. O=c1cc(-c2ccccc2)oc2cccc(O)c12; F
3. O=C(O)c1ccccc1C(=O)Nc1ccc(S(=O)(=O)Nc2nccs2)cc1; F
4. COc1cc([C@@H]2c3cc4c(cc3[C@H](OC(C)=O)[C@H]3COC(=O)[C@@H]23)OCO4)cc(OC)c1OC; F
5. C[C@@H]1CC2C3CCC4=CC(=O)C=C[C@]4(C)[C@@]3(F)[C@@H](O)C[C@]2(C)[C@H]1C(=O)CO (stereo partly drawn); F

## Task Hey, what did the test say about C[C@H](CCC(=O)O)[C@H]1CCC2C3C(CC[C@@]21C)[C@@]1(C)CC[C@@H](O)C[C@H]1C[C@H]3O (stereo partly drawn) ?
## Result F

## Task Hey, what did the test say about "O=c1cc(-c2ccccc2)oc2cc(O)c(O)c(O)c12" ?
## Result T

## Task Hey, what did the test say about C[C@@H]1CC2C3C[C@H](F)C4=CC(=O)C=C[C@]4(C)[C@@]3(F)[C@@H](O)C[C@]2(C)[C@@]1(O)C(=O)COC(=O)C(C)(C)C (stereo partly drawn) ?
## Result F

###

- ASSAY INFO: chemical genetic growth profiling, strain panel (AID 1159580);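 note: tested at 20 µM; growth read once vehicle control cultures reached saturation at 30 °C; lower values mean less growth of the strain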
- TEST SETTINGS: S. cerevisiae deletion strains, growth OD, locus YLR342W, strain FKS1 (second series)
Screen size: about 5,500 compounds; about 2,000 (36%) were called active. Not shown: some 18% with an inconclusive outcome. Rule as the data show it: active = normalized growth mostly below about 0.91 (no sharp cut-off); inconclusive = no clear call, values can overlap the other calls; inactive = mostly above about 0.92. The list shows a part of the results.
Return exactly one item of active, inactive

Solved entries (count: 3):
1. O=c1[nH]cnc2[nH]ncc12; inactive
2. COc1cc(OC)c2c3c1C(=O)c1c(OC)cc(C)c4c(OC)cc(c-3c14)C(C)(C)C2=O; inactive
3. NC(N)=O; inactive

## Task Hey, what did the test say about "Cc1cc(O)c(C)c2c1C(=O)Oc1c(C)c(O)c(C(=O)O)c(C)c1O2" ?
## Result inactive

## Task Hey, what did the test say about NS(=O)(=O)c1cc2c(cc1Cl)NC(C1CC3C=CC1C3)NS2(=O)=O (stereo not given) ?
## Result inactive

## Task Hey, what did the test say about "CC(=O)Nc1nnc(S(N)(=O)=O)s1" ?
## Result active

## Task Hey, what did the test say about "Cc1cc(O)c(C=O)c2c1C(=O)Oc1c(COC(=O)/C=C/C(=O)O)c(O)c(C(=O)O)c(C)c1O2" ?
## Result inactive

## Task Hey, what did the test say about Cc1cc(C)cc(OCC2CNC(=O)O2)c1 (stereo not given) ?
## Result inactive

## Task Hey, what did the test say about "COC(=O)CCCOc1ccc(Cl)cc1Cl" ?
## Result inactive

###

- ASSAY INFO: chemical genetic growth profiling, strain panel (AID 1159580);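 note: tested at 20 µM; growth read once vehicle control cultures reached saturation at 30 °C; lower values mean less growth of the strain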
- TEST SETTINGS: S. cerevisiae deletion strains, growth OD, locus YKL160W, strain elf1
The campaign covered roughly 5,500 compounds. About 2,000 (36%) were called active. Roughly 18% stayed inconclusive and do not appear here. Rule as the data show it: active = normalized growth mostly below about 0.91 (no sharp cut-off); inconclusive = no clear call, values can overlap the other calls; inactive = mostly above about 0.92. The list shows a part of the results.
Return exactly one item of active, inactive

Solved entries (count: 3):
1) COC(=O)CCC(C)[C@H]1CCC2C3C(C[C@H](O)[C@@]21C)[C@@]1(C)CC[C@@H](O)C[C@H]1C[C@H]3O (stereo not given in full); inactive
2) O=[N+]([O-])c1cccc2c(Br)[nH]nc12; inactive
3) CC(CCC(=O)O)[C@H]1CCC2C3CC[C@@H]4C[C@H](O)CC[C@]4(C)C3C[C@H](O)[C@@]21C (stereo not given in full); inactive

Please turn your attention to the following entry.
## Task Hey, what did the test say about "COc1ccc(C(=O)N2CCCC2=O)cc1" ?
## Result inactive
